B1: TPR 5TU (parent)
chain: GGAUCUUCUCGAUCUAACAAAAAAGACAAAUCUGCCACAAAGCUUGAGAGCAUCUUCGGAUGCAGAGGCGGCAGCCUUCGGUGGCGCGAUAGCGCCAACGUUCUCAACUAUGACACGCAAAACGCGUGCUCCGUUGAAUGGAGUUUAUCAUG

- Variants of: B1
- Measurement Notes: polymerase ribozyme fitness, log enrichment relative to wild type (log ratio); higher = more active; in vitro selection for triplet polymerase activity
This sample holds only a part of the variants without activity.
Everything with polymerase ribozyme fitness (log ratio) lower than -3 is No; everything else, including exactly -3, is Yes.

# Mutant Name, Cat
rows = [
    ("A52U C125U", "Yes"),
    ("U9A U15C C35U G71A C72U U77G C87A A119U G124C", "No"),
    ("C38U C87U", "Yes"),
    ("G128U A142C", "No"),
    ("G50A U78G", "No"),
]

Now examine the next entry.
Asked: Is polymerase ribozyme fitness (log ratio) at least -3? Consider C99G A147C
Given back: Yes
